assay: qHTS for Inhibitors of Mutant Isocitrate Dehydrogenase 1 (IDH1): U87 Cytotoxicity Assay for Probe SAR; conditions: U87MG-IDH1 R132H viability, CellTiter-Glo luminescence, 72 h; series mostly up to 22.1 µM
Calls of active or inactive are those of the source. Calls follow the shape of the dose curve; as a rule, active = well fitted curve in the direction sought with a large enough effect; inactive = no such curve, though single readings can be large or run the other way.
Answer with one of the outcomes given here: active, inactive

Lookup: Hello, I am checking results. What call was entered for Cc1ccccc1C(C(=O)NC1CCCCC1)N(C(=O)Cc1cccs1)c1cccc(F)c1 (stereo not given) ?
Found: inactive

Lookup: Hello, I am checking results. What call was entered for Cc1ccccc1C(C(=O)NC1CCCCC1)N(C(=O)c1ccccn1)c1cccc(F)c1 (stereo not given) ?
Found: active

Lookup: Hello, I am checking results. What call was entered for Cc1ccccc1C(C(=O)NC1CCCC1)N(C(=O)Cn1cnc2ccccc21)c1cccc(F)c1 (stereo not given) ?
Found: inactive

Lookup: Hello, I am checking results. What call was entered for COc1cccc(C(C(=O)NC2CCCCC2)N(C(=O)c2cccs2)c2ccc3c(c2)OCO3)c1 (stereo not given) ?
Found: inactive

Lookup: Hello, I am checking results. What call was entered for COc1ccc(N(C(=O)C2COc3ccccc3O2)C(C(=O)NC2CCCCC2)c2ccccc2)cc1OC (stereo not given) ?
Found: inactive
